Biological target: human active recombinant p38 (p38α) (Homo sapiens, UniProt Q16539)
Construct: 6His
Sequence (Q16539 whole entry): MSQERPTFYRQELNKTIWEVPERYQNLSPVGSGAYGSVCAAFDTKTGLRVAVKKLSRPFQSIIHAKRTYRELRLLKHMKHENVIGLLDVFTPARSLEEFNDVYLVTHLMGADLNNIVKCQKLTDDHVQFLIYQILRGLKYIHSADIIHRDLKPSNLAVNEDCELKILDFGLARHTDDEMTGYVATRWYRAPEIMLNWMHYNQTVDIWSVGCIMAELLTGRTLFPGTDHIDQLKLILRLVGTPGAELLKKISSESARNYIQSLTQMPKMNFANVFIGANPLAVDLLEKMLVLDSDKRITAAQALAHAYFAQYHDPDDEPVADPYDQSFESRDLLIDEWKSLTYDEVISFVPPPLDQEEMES
Test: p38 Alpha Enzyme Assay (AlphaScreen, biotinylated-ATF2 substrate)
Format: biochemical
Details: means of replicate determinations; pre-incubated for 4 hours at 37° C.; SD of assay between 0.2 and 0.3 log units; read-out: p38α inhibition Mean pIC50 (converted)
measuredAttribute: IC50 (nM)

Cc1c(F)cc(C(=O)NC2CC2)cc1-c1ccc2c(=O)n(CC(C)(C)CO)cc(S(=O)(=O)N3CC[C@@H](N)C3)c2c1 :: 0.251

P = Cc1c(F)cc(C(=O)NC2CC2)cc1-c1ccc2c(=O)n(CC3(CO)CC3)cc(S(=O)(=O)N3CCCNCC3)c2c1
Q = Cc1c(F)cc(C(=O)NC2CC2)cc1-c1ccc2c(=O)n(CC(C)(C)CO)cc(C(C)N3CCN[C@@H](CO)C3)c2c1 (stereo partly shown) [Example 44]
R = Cc1c(F)cc(C(=O)NC2CC2)cc1-c1ccc2c(=O)n(CCCCO)cc(CN3CCCN(C)CC3)c2c1
S = Cc1c(F)cc(C(=O)NC2CC2)cc1-c1ccc2c(=O)n(CC3(CO)CC3)cc(CN3CCN[C@@H](CO)C3)c2c1
Q) Order by IC50, ascending. Your task in answering is to list the labels in the requested order.
A) P, R, S, Q
(P: 0.158 nM, R: 0.251 nM, S: 0.398 nM, Q: 1.26 nM)

Cited source for all entries: patent US8012980B2
